assayed.system: Neprilysin (Canis familiaris)
assay.method.text: Inhibition of dog NEP
# reported IC50; entries follow

Worked examples, 3 molecules total:
{"molecule": "CCCC(CC1(C(=O)NCCc2ccc(Cl)cc2)CCCC1)C(=O)O (centres undefined)", "assayed.system": "Neprilysin (Canis familiaris)", "IC50": "> 2000 nM"}
{"molecule": "CCCC(CC1(C(=O)Nc2cccc(CC)n2)CCCC1)C(=O)O (centres undefined)", "assayed.system": "Neprilysin (Canis familiaris)", "IC50": "> 2000 nM"}
{"molecule": "CCCC(CC1(NC(=O)c2ccc(=O)n(Cc3ccccc3)c2)CCCC1)C(=O)O (centres undefined)", "assayed.system": "Neprilysin (Canis familiaris)", "IC50": "> 3000 nM"}

Return reported IC50 for target or system Neprilysin (Canis familiaris), item CCCNc1ccnc(NC(=O)C2(CC(CCC)C(=O)O)CCCC2)n1 (centres undefined) .
> 2000 nM
